Values compiled from patent US20260374754A1.

Biological target: human activated kallikrein enzyme (Homo sapiens)
Sequence (P03952 391-638 limits assumed): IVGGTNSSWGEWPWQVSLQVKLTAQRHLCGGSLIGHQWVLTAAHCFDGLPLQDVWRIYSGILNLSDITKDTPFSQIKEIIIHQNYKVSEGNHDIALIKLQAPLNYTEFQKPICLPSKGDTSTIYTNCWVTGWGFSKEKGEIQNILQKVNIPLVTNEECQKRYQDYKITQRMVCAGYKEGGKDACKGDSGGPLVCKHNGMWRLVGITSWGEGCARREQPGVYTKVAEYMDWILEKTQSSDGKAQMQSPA
Sequence (P03952 20-390 partner limits assumed): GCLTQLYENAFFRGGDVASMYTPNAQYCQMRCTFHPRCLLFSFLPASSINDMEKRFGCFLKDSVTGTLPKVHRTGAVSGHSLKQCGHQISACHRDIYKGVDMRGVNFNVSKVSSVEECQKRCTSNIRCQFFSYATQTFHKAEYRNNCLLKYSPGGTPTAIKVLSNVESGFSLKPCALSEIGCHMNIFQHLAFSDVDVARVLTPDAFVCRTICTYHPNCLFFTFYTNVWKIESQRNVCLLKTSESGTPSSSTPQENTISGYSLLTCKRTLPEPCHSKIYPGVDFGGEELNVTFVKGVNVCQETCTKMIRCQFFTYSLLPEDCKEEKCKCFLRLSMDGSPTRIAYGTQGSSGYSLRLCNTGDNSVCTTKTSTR
Assay: Inhibition of human activated plasma kallikrein, fluorogenic PFR-AMC substrate, 500 pM enzyme format
Format: biochemical
Conditions: 500 pM activated kallikrein; 300 μM PFR-AMC; 30 min preincubation; 10 min room temperature; pH 7.5; read-out: Primary Dose Response Assay: Average EC50
pEC50: −log10 of the molar value.
Parameter Measured: pEC50

Report pEC50 under test system human activated kallikrein enzyme (Homo sapiens) for Cc1cc2c(N)nccc2c(C)c1CNc1cc2c(cn1)ncn2Cc1cn2cc(C3CC3)ccc2n1 [Example 499] .
> 9.00

Report pEC50 under test system human activated kallikrein enzyme (Homo sapiens) for CCCCc1cc(COc2cc(NCc3c(C)cc4c(N)nccc4c3C)ncn2)cc2cc(Cl)c[n+]([O-])c12 [Example 399] .
7.00 to 8.00

Report pEC50 under test system human activated kallikrein enzyme (Homo sapiens) for Cc1cc2c(N)nccc2c(C)c1CNC(=O)c1cnn(Cc2ccc(CC(=O)Nc3ccccc3)cc2)c1 [Example 227] .
7.00 to 8.00

Report pEC50 under test system human activated kallikrein enzyme (Homo sapiens) for Cc1cc(Cn2cc(C(=O)NCc3c(C)cc4c(N)nccc4c3C)cn2)cc(C)c1CC(=O)N(C)C [Example 20] .
> 9.00

Report pEC50 under test system human activated kallikrein enzyme (Homo sapiens) for CCOC(=O)N(Cc1ccc(Cn2ccccc2=O)cc1)c1cc(NCc2c(C)cc3c(N)nccc3c2C)ncn1 [Example I-480] .
6.00 to 7.00

Report pEC50 under test system human activated kallikrein enzyme (Homo sapiens) for Cc1cc2c(N)nccc2c(C)c1CNC(=O)c1cnn(C(F)(F)c2ccc(Br)cc2)c1 [Example I-469] .
6.00 to 7.00

Report pEC50 under test system human activated kallikrein enzyme (Homo sapiens) for Cc1cc2c(N)nccc2c(C)c1CNc1cc(NCc2ccc3c(-n4ccccc4=O)cccc3c2)ncn1 [Example 245] .
> 9.00
